Reference source for all entries: patent US11059789B2

Where a name gives a salt, the structure may show the parent alone.
Record type: IC50 measurement. Applies to: ROCK1 (Homo sapiens (Human))

- Compound: "C[C@@H]1C[C@H]2[C@@H]3CCC4=CC(=O)C=C[C@]4(C)[C@@]3(F)[C@@H](O)C[C@]2(C)[C@@]1(O)C(=O)COC(=O)C[C@H](N)C(=O)OCc1ccc([C@@H](CN)C(=O)Nc2ccc3cnccc3c2)cc1 [Example 83, trihydrochloride]"
  Target Entity: "ROCK1 (Homo sapiens (Human))"
  IC50 [nM]: 11
- Compound: "CC1(C)O[C@@H]2C[C@H]3[C@@H]4C[C@H](F)C5=CC(=O)C=C[C@]5(C)[C@@]4(F)[C@@H](O)C[C@]3(C)[C@]2(C(=O)COC(=O)CCC(=O)OCc2ccc([C@@H](CN)C(=O)Nc3ccc4cnccc4c3)cc2)O1 [Example 40]"
  Target Entity: "ROCK1 (Homo sapiens (Human))"
  IC50 [nM]: 19
- Compound: "C[C@]12C=CC(=O)C=C1CC[C@@H]1[C@@H]2[C@@H](O)C[C@@]2(C)[C@H]1CC[C@]2(O)C(=O)COC(=O)C1CC1C(=O)OCc1ccc([C@@H](CN)C(=O)Nc2ccc3cnccc3c2)cc1 (stereo partly shown) [Example 19]"
  Target Entity: "ROCK1 (Homo sapiens (Human))"
  IC50 [nM]: 58
- Compound: "C[C@@H]1C[C@H]2[C@@H]3CCC4=CC(=O)C=C[C@]4(C)[C@@]3(F)[C@@H](O)C[C@]2(C)[C@@]1(O)C(=O)COC(=O)CCC(=O)OCc1ccc([C@@H](CN)C(=O)Nc2ccc3cnccc3c2)cc1 [Example 25]"
  Target Entity: "ROCK1 (Homo sapiens (Human))"
  IC50 [nM]: 25

----------
Items are presented alongside their recorded log10 of IC50.
Target Entity: AKT1 (Homo sapiens (Human), UniProt P31749)
Sequence (P31749 whole entry, species assumed): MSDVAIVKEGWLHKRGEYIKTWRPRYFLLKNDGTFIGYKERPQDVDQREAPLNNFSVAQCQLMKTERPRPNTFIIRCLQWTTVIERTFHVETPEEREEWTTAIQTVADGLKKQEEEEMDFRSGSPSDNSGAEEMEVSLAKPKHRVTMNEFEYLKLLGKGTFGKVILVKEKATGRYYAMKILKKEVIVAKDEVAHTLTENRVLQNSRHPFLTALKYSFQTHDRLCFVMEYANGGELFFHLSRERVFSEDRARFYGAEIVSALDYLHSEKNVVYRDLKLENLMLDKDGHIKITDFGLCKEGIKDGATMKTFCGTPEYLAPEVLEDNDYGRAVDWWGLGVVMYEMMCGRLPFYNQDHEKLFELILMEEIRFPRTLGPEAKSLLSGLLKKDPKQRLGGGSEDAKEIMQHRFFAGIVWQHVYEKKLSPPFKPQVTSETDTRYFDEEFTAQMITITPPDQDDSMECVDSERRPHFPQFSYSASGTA
Experiment Notes: Kinase assay AKT1
Assay type: biochemical
Settings: HCl salt
Structures can show the parent of a compound that is named as a salt.
Endpoint Label: log10 of IC50 (log10 of the value in nM)

- Compound: "CC1(C)O[C@@H]2C[C@H]3[C@@H]4CCC5=CC(=O)C=C[C@]5(C)[C@@]4(F)[C@@H](O)C[C@]3(C)[C@]2(C(=O)COC(=O)CCC(=O)OCc2ccc([C@@H](CN)C(=O)Nc3ccc4cnccc4c3)cc2)O1 [Example 33]"
  Target Entity: "AKT1 (Homo sapiens (Human), UniProt P31749)"
  Endpoint Label: "log10 of IC50"
  Numeric Readout: 3.09
- Compound: "C[C@@H]1C[C@H]2[C@@H]3CCC4=CC(=O)C=C[C@]4(C)[C@@]3(F)[C@@H](O)C[C@]2(C)[C@@]1(O)C(=O)COC(=O)CCC(=O)OCc1ccc([C@@H](CN)C(=O)Nc2ccc3cnccc3c2)cc1 [Example 25]"
  Target Entity: "AKT1 (Homo sapiens (Human), UniProt P31749)"
  Endpoint Label: "log10 of IC50"
  Numeric Readout: 2.98
- Compound: "C[C@@H]1C[C@H]2[C@@H]3CCC4=CC(=O)C=C[C@]4(C)[C@@]3(F)[C@@H](O)C[C@]2(C)[C@@]1(O)C(=O)COC(=O)c1ccc(C(=O)OCc2ccc([C@@H](CN)C(=O)Nc3ccc4cnccc4c3)cc2)cc1 [Example 66, dihydrochloride]"
  Target Entity: "AKT1 (Homo sapiens (Human), UniProt P31749)"
  Endpoint Label: "log10 of IC50"
  Numeric Readout: 3.13
- Compound: "CC1(C)O[C@@H]2C[C@H]3[C@@H]4C[C@H](F)C5=CC(=O)C=C[C@]5(C)[C@@]4(F)[C@@H](O)C[C@]3(C)[C@]2(C(=O)COC(=O)CCC(=O)OCc2ccc([C@@H](CN)C(=O)Nc3ccc4cnccc4c3)cc2)O1 [Example 40]"
  Target Entity: "AKT1 (Homo sapiens (Human), UniProt P31749)"
  Endpoint Label: "log10 of IC50"
  Numeric Readout: 2.72
- Compound: "C[C@]12C=CC(=O)C=C1CC[C@@H]1[C@@H]2[C@@H](O)C[C@@]2(C)[C@H]1CC[C@]2(O)C(=O)COC(=O)C1CC1C(=O)OCc1ccc([C@@H](CN)C(=O)Nc2ccc3cnccc3c2)cc1 (stereo partly shown) [Example 19]"
  Target Entity: "AKT1 (Homo sapiens (Human), UniProt P31749)"
  Endpoint Label: "log10 of IC50"
  Numeric Readout: 3.40
- Compound: "C[C@@H]1C[C@H]2[C@@H]3CCC4=CC(=O)C=C[C@]4(C)[C@@]3(F)[C@@H](O)C[C@]2(C)[C@@]1(O)C(=O)COC(=O)C[C@H](N)C(=O)OCc1ccc([C@@H](CN)C(=O)Nc2ccc3cnccc3c2)cc1 [Example 83, trihydrochloride]"
  Target Entity: "AKT1 (Homo sapiens (Human), UniProt P31749)"
  Endpoint Label: "log10 of IC50"
  Numeric Readout: 1.98
- Compound: "C[C@@H]1C[C@H]2[C@@H]3CCC4=CC(=O)C=C[C@]4(C)[C@@]3(F)[C@@H](O)C[C@]2(C)[C@@]1(O)C(=O)COC(=O)C1CC1C(=O)OCc1ccc([C@@H](CN)C(=O)Nc2ccc3cnccc3c2)cc1 (stereo partly shown) [Example 27]"
  Target Entity: "AKT1 (Homo sapiens (Human), UniProt P31749)"
  Endpoint Label: "log10 of IC50"
  Numeric Readout: 3.42
